Sourced from patent US9107814B2

experiment: paclitaxel prodrug loading and sizing of PEG-b-PCL micelles; assay type: physicochemical; conditions: after evaporation to 25% of original volume and refiltration (0.22-μm)
I'd be grateful if you could share measured Solubilized (in parentheses) for these entries.

Consider the following illustrative entries.
compound	recorded_result
CCCCCC(=O)O[C@@H](C(=O)O[C@H]1C[C@@]2(O)[C@@H](OC(=O)c3ccccc3)[C@@H]3[C@]4(OC(C)=O)CO[C@@H]4C[C@H](O)[C@@]3(C)C(=O)[C@H](OC(C)=O)C(=C1C)C2(C)C)[C@@H](NC(=O)c1ccccc1)c1ccccc1 [Prodrug 5a]	> 3 mg/mL
CCCCCCCCCCCCCCCC(=O)O[C@@H](C(=O)O[C@H]1C[C@@]2(O)[C@@H](OC(=O)c3ccccc3)[C@@H]3[C@]4(OC(C)=O)CO[C@@H]4C[C@H](O)[C@@]3(C)C(=O)[C@H](OC(C)=O)C(=C1C)C2(C)C)[C@@H](NC(=O)c1ccccc1)c1ccccc1 [Prodrug 5c, 2-palmitate-paclitaxel]	> 3 mg/mL

Please find the next compound below.
Prompt: Bench note: what Solubilized (in parentheses) did CCCCCCCCCCCC(=O)OC(C(=O)OC1CC2(O)C(OC(=O)c3ccccc3)C3C4(OC(C)=O)COC4CC(O)C3(C)C(=O)C(OC(C)=O)C(=C1C)C2(C)C)C(NC(=O)c1ccccc1)c1ccccc1 (stereo not drawn) [Prodrug 5b] show?
Completion: > 3 mg/mL
